test system: DeltatarO mutant; assay: S. aureus survival, RN4220 and DeltatarO strains – OD600, teichoic acid synthesis inhibitors, primary screen (AID 463173); conditions: S. aureus RN4220 wild type/DeltatarO growth, OD600, 18 h, hits give low values, screened at 18.75 µg/mL (by protocol)
Among all 52,000 compounds or so, about 4,300 (8.3%) were called active. The sample holds actives, similar compounds and a random draw of the others, so the mix is not that of the screen.
MEASUREMENT LABEL: survival (%)
Answer format: numeric, % implied, no suffix.

Entry NC(=O)Cn1cc(F)c(=O)[nH]c1=O : survival on DeltatarO mutant = 87

Entry Cc1nc2c(-c3ccccc3)c(C)nn2c(C)c1CCC(=O)NCc1cccc(Cl)c1 : survival on DeltatarO mutant = 109

Entry O=C(Nc1ccc(C(=O)N2CCN(c3cccc(Cl)c3)CC2)cc1)c1nsc2ccccc12 : survival on DeltatarO mutant = 79

Entry Cc1csc2nc(COC(=O)c3ccccc3NC(=O)c3ccc(F)cc3)cc(=O)n12 : survival on DeltatarO mutant = 55

Entry Cc1ccc(C(=O)N2CCC(C(N)=O)CC2)cc1NC(=O)c1nsc2ccccc12 : survival on DeltatarO mutant = 87

Entry CC(=O)Nc1cccc(NC(=O)Cc2csc(COc3cccc(C)c3)n2)c1 : survival on DeltatarO mutant = 89

Entry O=C(Nc1cccc(F)c1F)C1CCN(c2ncccn2)CC1 : survival on DeltatarO mutant = 62

Entry CCCOc1cccc(C2c3c(oc4ccc(F)cc4c3=O)C(=O)N2c2nc(C)c(C(C)=O)s2)c1 (stereo not given) : survival on DeltatarO mutant = 65

Entry Cc1ccc(NC(=O)c2nc(S(=O)(=O)Cc3cccc(C)c3)ncc2Cl)cc1 : survival on DeltatarO mutant = -3

Entry CSc1cccc(NC(=O)Cn2nc(C)c3sc4ccccc4c3c2=O)c1 : survival on DeltatarO mutant = 83

Entry Cc1ccc(C(=O)N2CCC(C)CC2)cc1NC(=O)c1nsc2ccccc12 : survival on DeltatarO mutant = 96

Entry O=C(c1ccccc1)N1CCN(S(=O)(=O)c2ccccc2)CC1 : survival on DeltatarO mutant = 68

Entry OCCN(CCO)CC(O)Cn1c2ccc(Br)cc2c2cc(Br)ccc21 (stereo not given) : survival on DeltatarO mutant = 2

Entry CCOc1ccc(N(c2nc(-c3ccc(OC)c(OC)c3)no2)c2nc(-c3ccc(OC)c(OC)c3)no2)cc1 : survival on DeltatarO mutant = 73

Entry CCOc1ccccc1NC(=O)c1nc(S(=O)(=O)Cc2cccc(C)c2)ncc1Cl : survival on DeltatarO mutant = 66

Entry Cc1cccc(N(CC(O)Cn2c3ccccc3c3ccccc32)S(=O)(=O)c2ccc(F)cc2)c1 (stereo not given) : survival on DeltatarO mutant = 58

Entry COc1ccc(S(=O)(=O)c2c(Nc3c(C)cccc3C)sc(C(=O)c3ccc(F)cc3)c2N)cc1 : survival on DeltatarO mutant = 98

Entry Cc1ccc(C)c(N2CCN(C(=O)c3ccc(NC(=O)c4nsc5ccccc45)cc3)CC2)c1 : survival on DeltatarO mutant = 67

Entry Cc1ccc(Cl)cc1N1CCN(C(=O)c2ccc(NC(=O)c3nsc4ccccc34)cc2)CC1 : survival on DeltatarO mutant = 6

Entry Cc1ccc(C(=O)N2CCCCC2)cc1NC(=O)c1nsc2ccccc12 : survival on DeltatarO mutant = -4
